System: Thrips tabaci
Assay: Thrips tabaci (onion thrips) leaf disc spray test
Type: in vivo
Settings: foliar, 168 h, 200 ppm spray on sunflower leaf discs, mixed ages, 7 days, mortality

{"columns": ["compound", "pest or weed control at 200 ppm"],
 "data": [
  ["Cc1cc(C2=NOC(c3cc(Cl)cc(Cl)c3)(C(F)(F)F)C2)ccc1C(=O)N[C@@H]1CON(C2CCC2)C1=O (stereo partly shown) [Compound B11]", "≥ 80%"],
  ["Cc1cc(C2=NOC(c3cc(Cl)cc(Cl)c3)(C(F)(F)F)C2)ccc1C(=O)N[C@@H]1CON(C2CSC2)C1=O (stereo partly shown) [Compound B10]", "≥ 80%"],
  ["CCN1OC[C@H](NC(=O)c2ccc(C3=NO[C@@](c4cc(Cl)cc(Cl)c4)(C(F)(F)F)C3)cc2C)C1=O [Compound G3]", "≥ 80%"],
  ["CCN1OC[C@@H](NC(=O)c2ccc(C3=NOC(c4cc(Cl)cc(Cl)c4)(C(F)(F)F)C3)cc2C)C1=O (stereo partly shown) [Compound B6]", "≥ 80%"]
]}
